target: purified recombinant human alpha synuclein fibrils (human, UniProt P37840 1-140); assay: SPR, Biacore T200, as in Example 3; full-length IgG4P injected
I'd be grateful if you could share measured koff for these entries.
Numbers only, in s⁻¹.

I have 3 binders here; please give me koff for each one.
1. VR6470 gL3-N33R; gH23-S56N-N102H (antibody, human IgG4 S228P, kappa, V domains shown, Full-length humanized human IgG4P) VH: EVQLLESGGGLVQPGGSLRLSCAVSGIDLSSHDMYWVRQAPGKGLEYIGAIYASGNTYYASWAKGRFTISRDNSKNTVYLQMNSLRAEDTAVYYCARIHYGHSGGLWGQGTLVTVSS VL: DIQMTQSPSSLSASVGDRVTITCQASQSVYKNRYLAWFQQKPGKAPKQLIYGASTLASGVPSRFSGSGSGTQFTLTISSLQPEDFATYYCAGYKGGRNDGFAFGGGTKVEIKR
2. 6470gL3gH36 IgG4P (antibody, V domains shown, Full-length humanized human IgG4P; also called VR6470 gL3; VR6470) VH: EVQLLESGGGLVQPGGSLRLSCAVSGIDLSSHDMYWVRQAPGKGLEYIGAIYASGSTYYASWAKGRFTISRDSSKNTLYLQMNSLRAEDTAVYYCARIHYGNSGGLWGQGTLVTVSS VL: DIQMTQSPSSLSASVGDRVTITCQASQSVYKNNYLAWFQQKPGKAPKQLIYGASTLASGVPSRFSGSGSGTQFTLTISSLQPEDFATYYCAGYKGGRNDGFAFGGGTKVEIKR
3. VR6470 gL3-N33R; gH36-S56N-N102H (antibody, human IgG4 S228P, kappa, V domains shown, Full-length humanized human IgG4P) VH: EVQLLESGGGLVQPGGSLRLSCAVSGIDLSSHDMYWVRQAPGKGLEYIGAIYASGNTYYASWAKGRFTISRDSSKNTLYLQMNSLRAEDTAVYYCARIHYGHSGGLWGQGTLVTVSS VL: DIQMTQSPSSLSASVGDRVTITCQASQSVYKNRYLAWFQQKPGKAPKQLIYGASTLASGVPSRFSGSGSGTQFTLTISSLQPEDFATYYCAGYKGGRNDGFAFGGGTKVEIKR

[reply]
1. 0.000116
2. 0.000317
3. 0.000126
